System: rodent lifetime carcinogenesis bioassay, tumor incidence TD50
assay-text: carcinogenic potency in animals, long-term in vivo studies, CPDB compilation (AID 1745844)
study-conditions: rat; strain Sprague-Dawley albino; females; in feed; site: forestomach; lesion: squamous-cell carcinoma; dosed 46 weeks; study length 68 weeks
endpoint-label: TD50

Exam item: Endpoint output: TD50 of O=[N+]([O-])c1ccc(-c2cscn2)o1 . Value?
Marked response: 19.5 mg/kg/day

---

The compounds listed here are annotated with their TD50.
System: rodent lifetime carcinogenesis bioassay, tumor incidence TD50
assay-text: carcinogenic potency in animals, long-term in vivo studies, CPDB compilation (AID 1745844)
study-conditions: mouse; strain B6C3F1; males; oral dosing; site: lung; lesion: adenoma; dosed 76 weeks; study length 76 weeks
The source made the active and inactive calls. The rule behind the calls is not given here.

>  <compound>
[S-]c1nc2ccccc2s1.[S-]c1nc2ccccc2s1.[Zn+2]

>  <TD50>
2750 mg/kg/day (inactive)

$$$$

Exam item: Reported TD50 for C=C1C[C@]23C[C@@]1(O)CC[C@H]2[C@@]12C=C[C@H](O)[C@@](C)(C(=O)O1)[C@H]2[C@@H]3C(=O)O : what is it?
Marked response: 952 mg/kg/day (inactive)

Exam item: Again, but for NC(=O)Cc1cccc2ccccc12
Marked response: 1010 mg/kg/day (inactive)

Exam item: Queued: S=c1[nH]c2ccccc2s1
Marked response: 120 mg/kg/day (inactive)

Exam item: Item: Cc1cc(O)cc(C)c1N(C)C
Marked response: 56.1 mg/kg/day (inactive)

Exam item: Now give it for O=C1C2CC=CCC2C(=O)N1SC(Cl)(Cl)Cl (configuration not stated) too.
Marked response: 187 mg/kg/day (inactive)

Exam item: Repeat with CCCCOC(=O)COc1ccc(Cl)cc1Cl
Marked response: 59 mg/kg/day (inactive)

Exam item: What do you have for S=C([S-])NCCNC(=S)[S-].[Mn+2] ?
Marked response: 128 mg/kg/day (inactive)

Exam item: Another compound to look at: c1ccc2sc(SNC3CCCCC3)nc2c1
Marked response: 532 mg/kg/day (inactive)
